Data provenance: PubChem BioAssay (NCATS)

- Tested on: TAB113
- assay comment: qHTS profiling for inhibitors of Plasmodium falciparum proliferation (AID 504749); also: nearly all actives have a fitted effect of over 60% in size; also: potency is read from the fitted curve at half-maximal effect
- assay conditions: P. falciparum in erythrocytes, SYBR Green DNA, 72 h; series mostly up to 28.7 µM
Inconclusive results are not listed. Activity calls are given as the source filed them. Calls follow the shape of the dose curve; as a rule, active = well fitted inhibition curve with a large enough effect; inconclusive = small, poorly fitted or top-dose-only effect; inactive = flat fitted curve, though single readings scatter.
measurement type: Potency

compound | system | Potency
CC1=C(C(=O)OC(C)C)C(c2cccc([N+](=O)[O-])c2)C(C(=O)OC2CN(C(c3ccccc3)c3ccccc3)C2)=C(N)N1 (configuration not stated) | TAB113 | 7.08 µM (active)
C1CCc2nnnn2CC1 | TAB113 | inactive
COc1c2occc2c(OC)c2c(=O)cc(C)oc12 | TAB113 | inactive
CCCCCCCCCCCCCCNCCO | TAB113 | inactive
COc1ccc(/C=C/C(=O)c2ccc(OC)cc2OC)cc1 | TAB113 | 8.91 µM (active)

q: Entry "O=C(OCCOCCO)c1ccccc1Nc1cccc(C(F)(F)F)c1" : reported Potency = ?
a: inactive

q: Entry Cc1c(F)c(N2CCNC(C)C2)cc2c1c(=O)c(C(=O)O)cn2C1CC1 (configuration not stated) : reported Potency = ?
a: inactive

q: Entry CC(O)C(=O)O (configuration not stated) : reported Potency = ?
a: inactive

q: Entry "Cc1c(N(C)CS(=O)(=O)O)c(=O)n(-c2ccccc2)n1C" : reported Potency = ?
a: inactive

q: Entry COc1cccc(CCc2ccccc2OCC(CN(C)C)OC(=O)CCC(=O)O)c1 (configuration not stated) : reported Potency = ?
a: 5.62 µM (active)

q: Entry COc1cc2c(cc1OC)C(=O)C(CC1CCN(Cc3ccccc3)CC1)C2 (configuration not stated) : reported Potency = ?
a: inactive

q: Entry "NC(CO)(CO)CO" : reported Potency = ?
a: inactive
